What melting point was measured for each of the following?

Ask: Could you tell me which melting point is on file for CCCCNS(=O)(=O)c1ccc(Cl)c(C(=O)OCC(=O)[C@H](CC(=O)O)NC(=O)OCc2ccccc2)c1Cl [Example 49] ?
Reply: 48 to 50 °C

Ask: Could you tell me which melting point is on file for NC(=O)CNS(=O)(=O)c1ccc(Cl)c(C(=O)OCC(=O)[C@H](CC(=O)O)NC(=O)OCc2ccccc2)c1Cl [Example 52] ?
Reply: 54 to 56 °C

Ask: Could you tell me which melting point is on file for O=C(O)C[C@H](NC(=O)OCc1ccccc1)C(=O)COc1ccc(S(=O)(=O)N2CCOCC2)cc1F [Example 42] ?
Reply: 65 to 66 °C

Ask: Could you tell me which melting point is on file for CN(C)Cc1ccc(C(=O)N[C@@H](CC(=O)O)C(=O)COC(=O)c2c(Cl)cccc2Cl)cc1 [Example 68] ?
Reply: 55 to 57 °C

---

Test system: IL-1β protease (Homo sapiens, UniProt P29466)
Sequence (P29466 120-297 limits assumed): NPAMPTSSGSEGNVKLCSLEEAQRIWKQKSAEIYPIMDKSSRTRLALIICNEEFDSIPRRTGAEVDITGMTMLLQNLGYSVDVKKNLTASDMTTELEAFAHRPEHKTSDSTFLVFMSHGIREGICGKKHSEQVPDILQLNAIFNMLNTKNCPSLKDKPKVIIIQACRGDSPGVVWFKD
Sequence (P29466 317-404 limits assumed): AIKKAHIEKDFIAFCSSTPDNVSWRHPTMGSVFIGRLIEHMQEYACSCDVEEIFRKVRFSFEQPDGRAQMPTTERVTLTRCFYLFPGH
Sorting guide: entries reporting IC50 beneath 90 nM go in the TRUE pile, the rest go in the FALSE pile.

Ask: Lab note: IC50 threshold 90 nM. Does this compound come in strictly under it? "CN(C)Cc1ccc(C(=O)N[C@@H](CC(=O)O)C(=O)COC(=O)c2c(Cl)cccc2Cl)cc1"
Reply: FALSE

Ask: Lab note: IC50 threshold 90 nM. Does this compound come in strictly under it? "O=C(O)C[C@H](NC(=O)OCc1ccccc1)C(=O)COc1ccc(S(=O)(=O)N2CCOCC2)cc1F"
Reply: FALSE

Ask: Lab note: IC50 threshold 90 nM. Does this compound come in strictly under it? "NC(=O)CNS(=O)(=O)c1ccc(Cl)c(C(=O)OCC(=O)[C@H](CC(=O)O)NC(=O)OCc2ccccc2)c1Cl"
Reply: TRUE

Ask: Lab note: IC50 threshold 90 nM. Does this compound come in strictly under it? "O=C(O)C[C@H](NC(=O)c1ccco1)C(=O)COC(=O)c1c(Cl)cccc1Cl"
Reply: FALSE
